System: barnyardgrass
protocol-text: Test B flood
Format: in vivo, Echinochloa crus-galli
condition-set: 250 g ai/ha, visual rating on 0 to 100 scale (0 no effect, 100 complete control), 13 to 15 days
Each entry below carries its reported Plant response rating, Barnyardgrass.
Just the number, please, no unit after it.

// known answers, use as guide
{"columns": ["molecule", "measured"],
 "data": [
  ["CCCNC(=O)c1cc(CC)n(Cc2ccnc(OC(F)F)c2)n1 [Compound 132]", 60],
  ["CCNC(=O)c1cc(CC)n(Cc2ccnc(C(F)(F)F)c2)n1 [Compound 196]", 30],
  ["CCc1cc(C(=O)NCC2CC2)nn1Cc1ccnc(C(F)(F)F)c1 [Compound 199]", 55],
  ["CCc1cc(C(=O)NCC(F)(F)F)nn1Cc1nnc(C(F)(F)F)o1 [Compound 146]", 0],
  ["CCCc1cc(C(=O)NCC(F)(F)F)nn1Oc1ccnc(C(F)(F)F)c1 [Compound 92]", 0],
  ["CCc1cc(C(=O)NN(C)C)nn1Cc1ccnc(C(F)(F)F)c1 [Compound 192]", 0],
  ["CCc1cc(C(=O)NC(C)C)nn1Cc1cc(OC(F)F)nn1C [Compound 137]", 0],
  ["CCCc1cc(C(=O)NOCC)nn1Cc1ccnc(C(F)(F)F)c1 [Compound 185]", 20],
  ["CCNC(=O)c1cc(CCCl)n(Cc2ccnc(C(F)(F)F)c2)n1 [Compound 179]", 25],
  ["CCc1cc(C(=O)NC2CC2)nn1Cc1nc(C(F)(F)F)no1 [Compound 163]", 0]
]}

Prompt line: State Plant response rating, Barnyardgrass (barnyardgrass) of CCCCNC(=O)c1cc(CC)n(Cc2cc(OC(F)F)nn2C)n1 [Compound 135] .
Response line: 0

Prompt line: State Plant response rating, Barnyardgrass (barnyardgrass) of CCCNC(=O)c1cc(CC)n(Cc2cc(C(F)(F)F)nn2C(C)C)n1 [Compound 209] .
Response line: 0

Prompt line: State Plant response rating, Barnyardgrass (barnyardgrass) of CCc1cc(C(=O)NC2CC2)nn1Cc1cc(C(F)(F)F)nn1CC [Compound 118] .
Response line: 0

Prompt line: State Plant response rating, Barnyardgrass (barnyardgrass) of CCc1cc(C(=O)NCC(F)(F)F)nn1Cc1ccnc(C(F)(F)F)c1 [Compound 78] .
Response line: 50

Prompt line: State Plant response rating, Barnyardgrass (barnyardgrass) of CCCNC(=O)c1cc(CC)n(Cc2cc(OC(F)F)nn2C)n1 [Compound 134] .
Response line: 0

Prompt line: State Plant response rating, Barnyardgrass (barnyardgrass) of CCNC(=O)c1cc(CC)n(Oc2cccc(OC(F)(F)F)c2)n1 [Compound 223] .
Response line: 0

Prompt line: State Plant response rating, Barnyardgrass (barnyardgrass) of CCc1cc(C(=O)NCC(F)(F)F)nn1Cc1cc(C(F)(F)F)nn1CC [Compound 119] .
Response line: 0
